Values compiled from patent US10611757B2.

# MEASUREMENT_DESCRIPTION: Comparative stability test (total impurity content, 25° C., 60% relative humidity)
# Assay type: physicochemical
# CONDITIONS: 2 months, packed
Each item that follows carries a reported total impurity content.
READOUT_KIND: total impurity content (%)

| COMPOUND | UNIT_ABBREVIATION | MEASURED_VALUE |
| --- | --- | --- |
| CCOc1nc2cccc(C(=O)OC(C)OC(=O)OCc3nc(C)c(C)nc3C)c2n1Cc1ccc(-c2ccccc2-c2noc(=O)[n-]2)cc1.[K+] (stereo not shown) [mixture of crystalline form I and II] | % | 2.20 |
| CCOc1nc2cccc(C(=O)OC(C)OC(=O)OCc3nc(C)c(C)nc3C)c2n1Cc1ccc(-c2ccccc2-c2noc(=O)[n-]2)cc1.[K+] (stereo not shown) [crystalline form II] | % | 1.59 |
| CCOc1nc2cccc(C(=O)OC(C)OC(=O)OCc3nc(C)c(C)nc3C)c2n1Cc1ccc(-c2ccccc2-c2noc(=O)[n-]2)cc1.[K+] (stereo not shown) [crystalline form III] | % | 2.98 |
| CCOc1nc2cccc(C(=O)OC(C)OC(=O)OCc3nc(C)c(C)nc3C)c2n1Cc1ccc(-c2ccccc2-c2noc(=O)[n-]2)cc1.[K+] (stereo not shown) [crystalline form I] | % | 2.34 |
